Target: recombinant PRL-3 (Homo sapiens, UniProt O75365)
Construct: 6xHis (N, cleaved yes); made in house; host or cells: E. coli One Shot BL21 Star
Sequence (O75365 whole entry): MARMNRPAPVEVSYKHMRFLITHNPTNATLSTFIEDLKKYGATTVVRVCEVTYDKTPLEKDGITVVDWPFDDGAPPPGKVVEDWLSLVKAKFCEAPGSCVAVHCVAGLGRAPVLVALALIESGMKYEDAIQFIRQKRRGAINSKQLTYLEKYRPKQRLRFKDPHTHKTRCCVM
Test: In vitro phosphatase assay (DiFMUP hydrolysis), PRL-3
Type: biochemical
Details: FDA-approved drug screen; compared to DMSO
Counter-ions that a name gives are not always drawn.
// bucketize % Phosphatase Activity (compared to DMSO) PRL-3: 1 = under 80%, 2 = from 80% up to 90%, 3 = 90% and over

Use the examples below as a reference point.
[
  {
    "MOLECULE": "CCN(CCCc1ccccc1)CCCc1ccccc1 [Alverine Citrate]",
    "GROUP_LABEL": 3
  },
  {
    "MOLECULE": "Oc1cccc(O)c1",
    "GROUP_LABEL": 1
  },
  {
    "MOLECULE": "C#C[C@]1(O)CC[C@H]2[C@@H]3CCc4cc(O)ccc4[C@H]3CC[C@@]21C",
    "GROUP_LABEL": 1
  },
  {
    "MOLECULE": "CC(=O)O[C@]1(C(C)=O)CC[C@H]2[C@@H]3C=C(C)C4=CC(=O)CC[C@]4(C)[C@H]3CC[C@@]21C [Megestrol Acetate]",
    "GROUP_LABEL": 1
  }
]

Problem: Into which category would you place COC(=O)C1=C(C)NC(C)=C(C(=O)OC(C)C)C1c1cccc2nonc12 (stereo not drawn) ?
Result: 1

Problem: Which of the defined bands does the recorded % Phosphatase Activity (compared to DMSO) PRL-3 of COCCCN1CCC(NC(=O)c2cc(Cl)c(N)c3c2OCC3)CC1 [Prucalopride] sit within?
Result: 2

Problem: Quick check: band for O=c1[nH]cnc2c1ncn2[C@H]1CC[C@@H](CO)O1
Result: 2

Problem: Could you place CC(=O)OCC(=O)[C@@]12N=C(C)O[C@@H]1C[C@H]1[C@@H]3CCC4=CC(=O)C=C[C@]4(C)[C@H]3[C@@H](O)C[C@@]12C in its proper category? Many thanks.
Result: 3

Problem: For the record CC[C@H]1OC(=O)[C@H](C)[C@@H](O[C@H]2C[C@@](C)(OC)[C@@H](O)[C@H](C)O2)[C@H](C)[C@@H](O[C@@H]2O[C@H](C)C[C@H](N(C)C)[C@H]2O)[C@](C)(O)C[C@@H](C)CN(C)[C@H](C)[C@@H](O)[C@]1(C)O [Azithromycin] , report the class its % Phosphatase Activity (compared to DMSO) PRL-3 corresponds to.
Result: 3

Problem: Lab note: sort CC(C)(C)C(=O)C(Oc1ccc(Cl)cc1)n1ccnc1 (stereo not drawn) into the matching % Phosphatase Activity (compared to DMSO) PRL-3 band.
Result: 1

Problem: Form field 'band' for C[C@H]1COc2c(N3CCN(C)CC3)c(F)cc3c(=O)c(C(=O)O)cn1c23 [Levofloxacin]
Result: 3

Problem: Class label required: CCCCCCNC(=O)n1cc(F)c(=O)[nH]c1=O
Result: 1

Provenance of the data: paper PMC8119466
